Reference for the values: PubChem BioAssay (NCI)

# System: EKVX NSCLC
# test.details: NCI tumour cell line growth inhibition, 48 h
quantity: GI50

Some molecules with recorded GI50:
[[record]]
compound_structure_string = "N#Cc1cc2c(cc1Cl)SC(=Nc1ccccc1)N(S(=O)(=O)c1ccc(Br)s1)S2(=O)=O"
measured_result = "19.5 µM"

[[record]]
compound_structure_string = "Cc1cn2cc(-c3ccc4c(c3)CC(=O)N4)nc2s1"
measured_result = "79.2 µM"

[[record]]
compound_structure_string = "C1CC[N-]CC1.CC(=N\\O)/C(C)=N/O.CC(=N\\O)/C(C)=N/O.C[CH-]C(C)O.[Co+2]"
measured_result = "35.7 µM"

[[record]]
compound_structure_string = "CSc1nc2ccc(C)cc2cc1/C=C1/C=C(c2ccccc2)NC1=O"
measured_result = "13.1 µM"

[[record]]
compound_structure_string = "CCSc1nc(N)c2cnn(CC)c2n1"
measured_result = "7.79 µM"


Lab note: next molecule to report on.
For COc1ccc(S(=O)(=O)Nc2cc(Sc3cccc4cccnc34)c(O)c3ccccc23)cc1 the molecule record lists GI50 as 1.44 µM
